Please go through the items and note down their Q-band.
- Measurement Description: Absorption spectra (Soret and Q bands)
- Type: physicochemical
- Condition Notes: solvent Acetone
Respond numerically; units are nm and should not be typed.

Please look at this compound and report its Q-band: [OH][Lu]1[n]2c3c4ccccc4c2C(c2ccccc2)=C2N=C(C(c4ccccc4)=c4c5ccccc5c([n]41)=C(c1ccccc1)C1=NC(=C3c3ccccc3)c3ccccc31)c1ccccc12 [Lu(OH)TPhTBP] 628

Give Q-band for c1ccc(C2=C3N=C(C(c4ccccc4)=c4c5ccccc5c5[n]4[Sn][n]4c2c2ccccc2c4C(c2ccccc2)=C2N=C(C=5c4ccccc4)c4ccccc42)c2ccccc23)cc1 [SnTPhTBP] 642

Give recorded Q-band. c1ccc(C2=C3N=C(C(c4ccccc4)=c4c5ccccc5c5[n]4[Pb][n]4c2c2ccccc2c4C(c2ccccc2)=C2N=C(C=5c4ccccc4)c4ccccc42)c2ccccc23)cc1 [PbTPhTBP] 663

For c1ccc(C2=C3N=C(C(c4ccccc4)=c4c5ccccc5c5[n]4[Zn][n]4c2c2ccccc2c4C(c2ccccc2)=C2N=C(C=5c4ccccc4)c4ccccc42)c2ccccc23)cc1.c1ccncc1.c1ccncc1 [ZnTPhTBP (Pyridine)2] , write its Q-band. 625

Supply recorded Q-band for [OH][Y]1[n]2c3c4ccccc4c2C(c2ccccc2)=C2N=C(C(c4ccccc4)=c4c5ccccc5c([n]41)=C(c1ccccc1)C1=NC(=C3c3ccccc3)c3ccccc31)c1ccccc12 [Y(OH)TPhTBP] here. 630

====

Kindly state Soret band for each of the entries shown.
- Measurement Description: Absorption spectra (Soret and Q bands)
- Assay type: physicochemical
- Condition Notes: solvent Acetone
Record the value in nm, omitting the unit from your answer.

Quickly give me recorded Soret band for `[OH][Lu]1[n]2c3c4ccccc4c2C(c2ccccc2)=C2N=C(C(c4ccccc4)=c4c5ccccc5c([n]41)=C(c1ccccc1)C1=NC(=C3c3ccccc3)c3ccccc31)c1ccccc12` 423

Provide only the value of recorded Soret band for `c1ccc(C2=C3N=C(C(c4ccccc4)=c4c5ccccc5c5[n]4[Zn][n]4c2c2ccccc2c4C(c2ccccc2)=C2N=C(C=5c4ccccc4)c4ccccc42)c2ccccc23)cc1.c1ccncc1.c1ccncc1` 428

Assign Soret band to the following record: `[OH][Y]1[n]2c3c4ccccc4c2C(c2ccccc2)=C2N=C(C(c4ccccc4)=c4c5ccccc5c([n]41)=C(c1ccccc1)C1=NC(=C3c3ccccc3)c3ccccc31)c1ccccc12` 431

State its Soret band for this compound: `c1ccc(C2=C3N=C(C(c4ccccc4)=c4c5ccccc5c5[n]4[Sn][n]4c2c2ccccc2c4C(c2ccccc2)=C2N=C(C=5c4ccccc4)c4ccccc42)c2ccccc23)cc1` 438

Specify measured Soret band for `c1ccc(C2=C3N=C(C(c4ccccc4)=c4c5ccccc5c5[n]4[Pb][n]4c2c2ccccc2c4C(c2ccccc2)=C2N=C(C=5c4ccccc4)c4ccccc42)c2ccccc23)cc1` . 487

====

For each entry below, report its Q-band value.
- Measurement Description: Absorption spectra (Soret and Q bands)
- Format: physicochemical
- Condition Notes: solvent DMF
- Protocol: Absorption spectra were recorded on a Beckman DU-64 spectrophotometer. Emission spectra (fluorescence and phosphorescence) were recorded using an AMINCO SPF-500C spectrofluorimeter. ^1H NMR spectra were recorded using a Brucker 300 MHz instrument. Phosphorescence lifetime measurements were performed using a light guide phosphorimeter designed by applicants. […]
// return numeric value only (unit: nm, not printed)

Item `[OH][La]1[n]2c3c4cc5ccccc5cc4c2C(c2ccccc2)=C2N=C(C(c4ccccc4)=c4c5cc6ccccc6cc5c([n]41)=C(c1ccccc1)C1=NC(=C3c3ccccc3)c3cc4ccccc4cc31)c1cc3ccccc3cc12` : provide Q-band 708

Give the reported value of Q-band for this record: `c1ccc(C2=C3N=C(C(c4ccccc4)=c4c5cc6ccccc6cc5c5[n]4[Pd][n]4c2c2cc6ccccc6cc2c4C(c2ccccc2)=C2N=C(C=5c4ccccc4)c4cc5ccccc5cc42)c2cc4ccccc4cc23)cc1` 694

Query Q-band for `[OH][Lu]1[n]2c3c4cc5ccccc5cc4c2C(c2ccccc2)=C2N=C(C(c4ccccc4)=c4c5cc6ccccc6cc5c([n]41)=C(c1ccccc1)C1=NC(=C3c3ccccc3)c3cc4ccccc4cc31)c1cc3ccccc3cc12` 709

Quickly give me recorded Q-band for `[OH][La]1[n]2c3c4ccccc4c2C(c2ccccc2)=C2N=C(C(c4ccccc4)=c4c5ccccc5c([n]41)=C(c1ccccc1)C1=NC(=C3c3ccccc3)c3ccccc31)c1ccccc12` 633
